- Protocol Summary: soluble fraction after stress (log2 fold change); higher = more stays soluble; pooled small domains, quantitative proteomics
- Particulars: stress: pH 4
Reported Metric: soluble fraction (log2)
Answer field: number only, no words.

INSERT INTO measurements (macromolecule_sequence, quantitative_result) VALUES
  ('HMLPKNITNTIDHWIQKFPQGKQRSAIIAALHAVQHHNKGFLTNDLLNQVADYIDVPKMNVYEVATFYSM', 0.22),
  ('HMEMKHKNSQIFQAIKLKHMGFTPTQISEELRVSRTTINHWLTKAQLKDVKWEDIRENSADELVKLLFG', -0.322),
  ('HMQDLTAQQQAILSFLKEHPKATRKEISENIPNITEDNIRYNLSQLQELGFVKSMGDSFIRIAI', 0.216);

# next sequence below
Task: Please give the measured soluble fraction (log2) for this sequence: HMQPQIDFEIDVEVRASSLRIVAAPNSDVLVATVGRGEHVVQLTYPKDGWVMIRTADDRVGFVPESLLL
Result: -0.254

###

- Protocol Summary: soluble fraction after stress (log2 fold change); higher = more stays soluble; pooled small domains, quantitative proteomics
- Particulars: stress: pH 4
Reported Metric: soluble fraction (log2)
Answer field: number only, no words.

INSERT INTO assay_data (macromolecule_sequence, reported_metric, quantitative_result) VALUES
  ('HMRNTETMKEIQAFVEDYFFEYHQSPSMQKVADAIGTSKSTAYYYVMEMARNGMLHYDGKTIETPHTQKS', 'soluble fraction (log2)', 0.285),
  ('HMKDMWNRIRRARLSAGLSQAALAKETGVRRSAVTQWEKEGGTSPSVANLARIAVVTQVHFEWLATGRGPG', 'soluble fraction (log2)', -0.216),
  ('HMDRMFQPETWSKIYQWVMNDPQVPDKEDVLALIRRHFGNFEKLIKLLHYLDGGKPYAYLSEH', 'soluble fraction (log2)', 0.411);

Task: Please give the measured soluble fraction (log2) for this sequence: HMTKTSQEDEDIMRHLDELHTRWPFLGQRKLIEELKDQGIQIGRKRLRRLMKVMGIEAIAPK
Result: 0.173

Task: Please give the measured soluble fraction (log2) for this sequence: HMQNVKIKAEVKGEVISPGVYELDEESRIQDLIDASGGFSDKAYYDNINLSMKLKDEMVLVVYDKDKI
Result: -1.35

Task: Please give the measured soluble fraction (log2) for this sequence: HMGEAIPVPDIRHKSQADAERLLQDQGLAMMVTDTGYVKTLPANYILEQIPVAGEKVKSGHVVYVIINSG
Result: 0.0317

Task: Please give the measured soluble fraction (log2) for this sequence: HMRLTTTPKTARGLTTMNRIIRAAEVEFGRKGYHYTGITDIAQRAKVASGTIYLYFTDKYSLYVHLLT
Result: 0.17

Task: Please give the measured soluble fraction (log2) for this sequence: HMSAITLDQARAIALDHAGISEGDATFVKEQTGTSSYEIEFYSGSNEYDYEIDKATGAILNVDR
Result: 0.22

Task: Please give the measured soluble fraction (log2) for this sequence: HMRKSAVSSTLTSIEGIGATRAKALLKHFKTVAAVSEADLKELEDAPGMTRPSALRVYEYFHGK
Result: 0.0795

Task: Please give the measured soluble fraction (log2) for this sequence: HMFQLSNEAKQQVLGELKRYESKQSAVLPALYIGQKDNKGHITPEVIRELSKVMDIPESQINEVFTFYTM
Result: -0.402

Task: Please give the measured soluble fraction (log2) for this sequence: HMVVVLPGETIKIDLIREGKDKQALGYLEDGTMIVVDNAKHLIGKNVEIEIDNVLPKEAGRVIFASLHGA
Result: -0.942

Task: Please give the measured soluble fraction (log2) for this sequence: HMVKLDDLTGQDKATAEATITNSGLKYSEQQEFSDEVEAGKVIRTDPGAGTSSLKAGDTVTVYVSRGPEN
Result: -0.0896

Task: Please give the measured soluble fraction (log2) for this sequence: HMTGKVSHGERKSVLVSLAGSMRARGMSIDAVRAGLYADNEKRFDPPLDERDIEDVLNSAKKWGDP
Result: -0.0814

Task: Please give the measured soluble fraction (log2) for this sequence: HMDRSQRDQEQAQLIRLVQQAFDDSGQRYGAEKIRITLAEGGIRVSTKRIAAIMQELDLRSI
Result: 0.251

###

- Protocol Summary: soluble fraction after stress (log2 fold change); higher = more stays soluble; pooled small domains, quantitative proteomics
- Particulars: stress: pH 4
Reported Metric: soluble fraction (log2)
Answer field: number only, no words.

Reference set, count: 10
INSERT INTO assay_data (macromolecule_sequence, quantitative_result) VALUES
  ('HMSVTSIEGRVVYDENANKIGIAKQVGIDSTQSMVLVLTKNDGTEGSISWNNIKKIGEIILLGN', -1.34),
  ('HMSLTEESAKSLIGLTENEAVKVAAERGWTVRVAMRDGEAFMLTQDYSENRVNLTVMKTLVTAVTI', -0.0567),
  ('HMGPNPLTEREQEILQLARTGEPVARLAKRLFLSPGTVRNHLSSAIGKLGAANRVEAAQFATERGW', -0.0238),
  ('HMETKERDEQFLEMIRQNEGIIFKVASFYVDKEHPIGDLYQEVVLNLWKGYPSFRGESKYSTWIYRIALNT', -0.504),
  ('HMTRVANIPYSEFLKLVETDKINDVSMVGKTISGHLDDGTKFSTYTPPNDPNLIDKLSKHNVIIKAGPE', 0.0499),
  ('HMRHLSVPNRQVEGALDHIRSQGWLAEGMRVFASEDGSARLIPLGPGAPLEMLEPLAKFDVISHEGKPY', -0.771),
  ('HMASANMPDVLGLDAETAKQVLAAKGFTKVEIYPMESSEPANRVVRQSEDRDTMVALTKEILLGVSNGS', -0.0377),
  ('HMRININNASARQIADALPGVGLKTARDIKDFQTTLSGERYTRLDQLHSIKRVDWDEIFKADLVRV', 0.158),
  ('HMLVGGPDTPSKVTVSFDLGSRQAVDELTERAGAAGGRIGDIDDYPFMYQRQFDDPDGYHYSPFWMKP', -0.528),
  ('HMKSYQKITPATEGNYLTTYREGDDIKTYEGVKAMYTPADFDASSVREITPEEHQSYQKAKEQALQEETEQ', 0.0912);

Task: Please give the measured soluble fraction (log2) for this sequence: HMKKGRIGSIIQYVREHPGVSSSEIITGLGLDISPATIRRDLTLLVAENKLSVEGQNKGTKYFVSPTYDMF
Result: 0.271

Task: Please give the measured soluble fraction (log2) for this sequence: HMSGIGTTIKMLRENKNISQEELGNVLGVSDKTISSWEINRTEPKMGIVQLLADYFGVSTDYLIKG
Result: -0.201

Task: Please give the measured soluble fraction (log2) for this sequence: HMRSFRIGGLVEQGSIARDGQSLTVRFAVTDLAHKIPVTYTGLLPDLFKEGKGVVAEGKLGPDGVFHASQV
Result: -0.705

Task: Please give the measured soluble fraction (log2) for this sequence: HMVSAEQNTLEFIKENVKEDVIEDDIEFYKSLLEDWSVEVDNSSKLLDPGNNNSLLAVIAYSIENEL
Result: -0.414

Task: Please give the measured soluble fraction (log2) for this sequence: HMVITATYTDFMDALEADEVKQVQFSSTEINYTIEKGGHVQYFKTGVVDNPQLPQILREKGVTYAAEIP
Result: -0.023

Task: Please give the measured soluble fraction (log2) for this sequence: HMNNILNYTIAELMEILKIDDLETENVINSSNNLINKSINENNFPLAEFYEDVKNNLIEFIETFDS
Result: -1.08

###

- Protocol Summary: soluble fraction after stress (log2 fold change); higher = more stays soluble; pooled small domains, quantitative proteomics
- Particulars: stress: pH 4
Category key, based on recorded soluble fraction (log2): low group: < -0.3; middle group: ≥ -0.3 and < 0.08; high group: ≥ 0.08

INSERT INTO measurements (macromolecule_sequence, label_value) VALUES
  ('HMVNLLVTPLEELEINFRTLRALRKYNIYQLEDLLRFIKYNGFDALRIVPGMGIKSTEQLYEKLKDKNI', 'low group'),
  ('HMREKPRETFQRIAEKVGQTLRKGPVRVQQMDLLFSESREQVMEVLRAMAESGEIRIQDDTLHWNGHT', 'high group'),
  ('HMTDEYYSYIGKTGTTITVLRPAGIAEVEGERLNVVSEGEFIRKGAAILVKEVEGARILVEEVN', 'high group'),
  ('HMVELVKVPALQGETVDEAIADIKDAGLEPGQVRYVESDLPKDTVTYQSVDAGEQVKAGTVINLQASKGP', 'high group'),
  ('HMPETAQLTDIQVSRSQAHTGIFSLHYYLTGTDSRGERVRLEISGDDYTRLSGSSSVTVEYYRHTGRIVRY', 'low group'),
  ('HMNTSITVPSLKGLSQEAATLKMERLGLHVEVSDTGFVRSLAFGTVLQQSIAPGEKVKPGRLVYITINSD', 'middle group'),
  ('HMYSSIIGIAFTRAENKPAAPTGGSYSNPHPVDGNWKAAPYDGDGNLWYSIRHFNENVDIQDREWSDPTLG', 'high group'),
  ('HMKFINISIDKSGNLFINKKSIKFQDLKYNVVNLVDESKNLVVLNADENISHGYVISVLDVLRSIDGLKLA', 'low group');

Task: Classify this sequence: HMAKKDVESTLGGRLRVARVRAGLTQVELARMLGMNSVSLSNVEGGRRGLSMKQLVRVAKILEVPVAYLLG
Result: high group

Task: Classify this sequence: HMSIAEMSGARKSAILLLALDEDSAAEIFKYLSAGEVQEISMEMAKLNQVSHDDMKAVLEAFHKETEEFV
Result: low group

Task: Classify this sequence: HMDIESREAWVDASGMGVRLDRWLTQLAPEFSRNHLQSLIERGAVRVDGQPALVASRKLRIGQQVAVSLIP
Result: middle group

Task: Classify this sequence: HMALPPPELRGATGEAVTALRPAGIALIQGKRYDVLAEGGEWIAAGAAVRVRDIRNGHLIVSDA
Result: high group

Task: Classify this sequence: HMQKLSPKQRRGNIIELIKENPTITAKNISTIFNLNQRTIERDLAKLTEEGYIKYEGSSKDGKWVFL
Result: high group

Task: Classify this sequence: HMLDNHPQSKKIRALWLEMAAAGVVRDSSEQALALWVKRETGISALRWLSNEQASSVIEKLKKWQRRAAG
Result: middle group

Task: Classify this sequence: HMEVTENQEKHAYQEAMDQALRFLAPRFLSRAELTRKLLQKEHDRDVIDAVIDRLEELDYVDDAR
Result: low group

Task: Classify this sequence: HMSDDAVVRMRVPEDALGLSLRETDFRQRFGVYVLAIETRDGKLLAPPDPQRPLGKDDVLVVIQKR
Result: middle group
